- System: HEK-293
- procedureDetails: MTT cytotoxicity on normal cells
- Assay type: cell-based, human
- testParameters: 25 µM (highest tested concentration), 24 h, serum-free medium
Where a SMILES comes first, the peptide text is derived from it.
attributeMeasured: Cell death of HEK-293

1) CC(C)[C@H](NC(=O)[C@H](CO)NC(=O)[C@H](Cc1ccccc1)NC(=O)[C@H](CC(N)=O)NC(=O)[C@H](CS)NC(=O)[C@H](Cc1ccc(O)cc1)NC(=O)[C@H](Cc1c[nH]cn1)NC(=O)CN)C(=O)N[C@H](C(=O)N1CCC[C@H]1C(=O)N[C@@H](CCCCN)C(=O)N[C@@H](Cc1ccccc1)C(=O)N[C@@H](CCCCN)C(=O)N[C@@H](CCCNC(=N)N)C(=O)N[C@@H](Cc1c[nH]c2ccccc12)C(=O)O)[C@@H](C)O [AD8] (H-GHYCNFSVTPKFKRW-OH) | less than 10%
2) CSCC[C@H](NC(=O)[C@H](CCCCN)NC(=O)CNC(=O)[C@H](CCCCN)NC(=O)[C@H](Cc1ccc(O)cc1)NC(=O)[C@H](CC(N)=O)NC(=O)[C@H](CC(C)C)NC(=O)[C@H](CCC(N)=O)NC(=O)[C@H](CC(C)C)NC(=O)[C@@H](N)CCCNC(=N)N)C(=O)N[C@@H](Cc1c[nH]c2ccccc12)C(=O)N[C@@H](CS)C(=O)N1CCC[C@H]1C(=O)NCC(=O)N[C@@H](Cc1c[nH]c2ccccc12)C(=O)O [AD11] (H-RLQLNYKGKMWCPGW-OH) | less than 10%
3) CC(C)C[C@H](NC(=O)[C@H](C)NC(=O)[C@H](Cc1ccccc1)NC(=O)[C@@H](N)Cc1ccccc1)C(=O)N[C@@H](CCC(N)=O)C(=O)N[C@@H](CS)C(=O)N[C@@H](C)C(=O)N[C@@H](C)C(=O)N[C@@H](CCCCN)C(=O)N[C@H](C(=O)N[C@@H](CCCNC(=N)N)C(=O)N[C@H](C(=O)N[C@@H](CCCNC(=N)N)C(=O)N[C@@H](CCCNC(=N)N)C(=O)N[C@H](C(=O)O)C(C)C)[C@@H](C)O)[C@@H](C)O [AD12] (H-FFALQCAAKTRTRRV-OH) | less than 10%
4) CC(C)C[C@H](NC(=O)[C@H](CCCNC(=N)N)NC(=O)[C@H](Cc1c[nH]c2ccccc12)NC(=O)[C@H](CCCNC(=N)N)NC(=O)[C@H](CC(C)C)NC(=O)[C@@H](N)Cc1ccccc1)C(=O)N[C@@H](CCCCN)C(=O)N[C@@H](Cc1ccccc1)C(=O)N[C@@H](CCCCN)C(=O)N[C@@H](CO)C(=O)N[C@@H](CCCCN)C(=O)N[C@H](C(=O)N[C@@H](Cc1c[nH]c2ccccc12)C(=O)N[C@@H](CS)C(=O)N1CCC[C@H]1C(=O)O)C(C)C [AD7] (H-FLRWRLKFKSKVWCP-OH) | less than 10%

* * *

- Tested on: MRSA
- Format: cell-based, Methicillin-resistant Staphylococcus aureus (ATCC, BAA-41)
- testParameters: 20 µl of wells without growth on agar, 18 h, 37 °C
Where a SMILES comes first, the peptide text is derived from it.
attributeMeasured: MBC (µM) MRSA

Sample answers from the record:
1) CC(C)[C@H](NC(=O)[C@H](CO)NC(=O)[C@H](Cc1ccccc1)NC(=O)[C@H](CC(N)=O)NC(=O)[C@H](CS)NC(=O)[C@H](Cc1ccc(O)cc1)NC(=O)[C@H](Cc1c[nH]cn1)NC(=O)CN)C(=O)N[C@H](C(=O)N1CCC[C@H]1C(=O)N[C@@H](CCCCN)C(=O)N[C@@H](Cc1ccccc1)C(=O)N[C@@H](CCCCN)C(=O)N[C@@H](CCCNC(=N)N)C(=O)N[C@@H](Cc1c[nH]c2ccccc12)C(=O)O)[C@@H](C)O [AD8] (H-GHYCNFSVTPKFKRW-OH) | 12.5 µM
2) CSCC[C@H](NC(=O)[C@H](CCCCN)NC(=O)CNC(=O)[C@H](CCCCN)NC(=O)[C@H](Cc1ccc(O)cc1)NC(=O)[C@H](CC(N)=O)NC(=O)[C@H](CC(C)C)NC(=O)[C@H](CCC(N)=O)NC(=O)[C@H](CC(C)C)NC(=O)[C@@H](N)CCCNC(=N)N)C(=O)N[C@@H](Cc1c[nH]c2ccccc12)C(=O)N[C@@H](CS)C(=O)N1CCC[C@H]1C(=O)NCC(=O)N[C@@H](Cc1c[nH]c2ccccc12)C(=O)O [AD11] (H-RLQLNYKGKMWCPGW-OH) | 12.5 µM
3) CC(C)C[C@H](NC(=O)[C@H](C)NC(=O)[C@H](Cc1ccccc1)NC(=O)[C@@H](N)Cc1ccccc1)C(=O)N[C@@H](CCC(N)=O)C(=O)N[C@@H](CS)C(=O)N[C@@H](C)C(=O)N[C@@H](C)C(=O)N[C@@H](CCCCN)C(=O)N[C@H](C(=O)N[C@@H](CCCNC(=N)N)C(=O)N[C@H](C(=O)N[C@@H](CCCNC(=N)N)C(=O)N[C@@H](CCCNC(=N)N)C(=O)N[C@H](C(=O)O)C(C)C)[C@@H](C)O)[C@@H](C)O [AD12] (H-FFALQCAAKTRTRRV-OH) | 25 µM

Note: attention shifts to another entry.
Quick one: MBC (µM) MRSA of CC(C)C[C@H](NC(=O)[C@H](CCCNC(=N)N)NC(=O)[C@H](Cc1c[nH]c2ccccc12)NC(=O)[C@H](CCCNC(=N)N)NC(=O)[C@H](CC(C)C)NC(=O)[C@@H](N)Cc1ccccc1)C(=O)N[C@@H](CCCCN)C(=O)N[C@@H](Cc1ccccc1)C(=O)N[C@@H](CCCCN)C(=O)N[C@@H](CO)C(=O)N[C@@H](CCCCN)C(=O)N[C@H](C(=O)N[C@@H](Cc1c[nH]c2ccccc12)C(=O)N[C@@H](CS)C(=O)N1CCC[C@H]1C(=O)O)C(C)C [AD7] (H-FLRWRLKFKSKVWCP-OH) ?
3.12 µM

* * *

- System: P. aeruginosa
- Type: cell-based, Pseudomonas aeruginosa (ATCC, 10145)
- testParameters: 20 µl of wells without growth on agar, 18 h, 37 °C
Where a SMILES comes first, the peptide text is derived from it.
Each item that follows carries a reported MBC (µM) P. aeruginosa.
Please state the figure in µM; there is no need to write the unit.

1. CC(C)C[C@H](NC(=O)[C@H](C)NC(=O)[C@H](Cc1ccccc1)NC(=O)[C@@H](N)Cc1ccccc1)C(=O)N[C@@H](CCC(N)=O)C(=O)N[C@@H](CS)C(=O)N[C@@H](C)C(=O)N[C@@H](C)C(=O)N[C@@H](CCCCN)C(=O)N[C@H](C(=O)N[C@@H](CCCNC(=N)N)C(=O)N[C@H](C(=O)N[C@@H](CCCNC(=N)N)C(=O)N[C@@H](CCCNC(=N)N)C(=O)N[C@H](C(=O)O)C(C)C)[C@@H](C)O)[C@@H](C)O [AD12] (H-FFALQCAAKTRTRRV-OH) | 25
2. CC(C)C[C@H](NC(=O)[C@H](CCCNC(=N)N)NC(=O)[C@H](Cc1c[nH]c2ccccc12)NC(=O)[C@H](CCCNC(=N)N)NC(=O)[C@H](CC(C)C)NC(=O)[C@@H](N)Cc1ccccc1)C(=O)N[C@@H](CCCCN)C(=O)N[C@@H](Cc1ccccc1)C(=O)N[C@@H](CCCCN)C(=O)N[C@@H](CO)C(=O)N[C@@H](CCCCN)C(=O)N[C@H](C(=O)N[C@@H](Cc1c[nH]c2ccccc12)C(=O)N[C@@H](CS)C(=O)N1CCC[C@H]1C(=O)O)C(C)C [AD7] (H-FLRWRLKFKSKVWCP-OH) | 25

Quick one: MBC (µM) P. aeruginosa of CC(C)[C@H](NC(=O)[C@H](CO)NC(=O)[C@H](Cc1ccccc1)NC(=O)[C@H](CC(N)=O)NC(=O)[C@H](CS)NC(=O)[C@H](Cc1ccc(O)cc1)NC(=O)[C@H](Cc1c[nH]cn1)NC(=O)CN)C(=O)N[C@H](C(=O)N1CCC[C@H]1C(=O)N[C@@H](CCCCN)C(=O)N[C@@H](Cc1ccccc1)C(=O)N[C@@H](CCCCN)C(=O)N[C@@H](CCCNC(=N)N)C(=O)N[C@@H](Cc1c[nH]c2ccccc12)C(=O)O)[C@@H](C)O [AD8] (H-GHYCNFSVTPKFKRW-OH) ?
50

* * *

- Test system: B. subtilis
- Format: cell-based, Bacillus subtilis (ATCC, 11774)
- testParameters: 20 µl of wells without growth on agar, 18 h, 37 °C
Where a SMILES comes first, the peptide text is derived from it.
attributeMeasured: MBC (µM) B. subtilis
Please state the figure in µM; there is no need to write the unit.

Sample answers from the record:
1) CC(C)[C@H](NC(=O)[C@H](CO)NC(=O)[C@H](Cc1ccccc1)NC(=O)[C@H](CC(N)=O)NC(=O)[C@H](CS)NC(=O)[C@H](Cc1ccc(O)cc1)NC(=O)[C@H](Cc1c[nH]cn1)NC(=O)CN)C(=O)N[C@H](C(=O)N1CCC[C@H]1C(=O)N[C@@H](CCCCN)C(=O)N[C@@H](Cc1ccccc1)C(=O)N[C@@H](CCCCN)C(=O)N[C@@H](CCCNC(=N)N)C(=O)N[C@@H](Cc1c[nH]c2ccccc12)C(=O)O)[C@@H](C)O [AD8] (H-GHYCNFSVTPKFKRW-OH) | 0.78
2) CC(C)C[C@H](NC(=O)[C@H](C)NC(=O)[C@H](Cc1ccccc1)NC(=O)[C@@H](N)Cc1ccccc1)C(=O)N[C@@H](CCC(N)=O)C(=O)N[C@@H](CS)C(=O)N[C@@H](C)C(=O)N[C@@H](C)C(=O)N[C@@H](CCCCN)C(=O)N[C@H](C(=O)N[C@@H](CCCNC(=N)N)C(=O)N[C@H](C(=O)N[C@@H](CCCNC(=N)N)C(=O)N[C@@H](CCCNC(=N)N)C(=O)N[C@H](C(=O)O)C(C)C)[C@@H](C)O)[C@@H](C)O [AD12] (H-FFALQCAAKTRTRRV-OH) | 0.78
3) CSCC[C@H](NC(=O)[C@H](CCCCN)NC(=O)CNC(=O)[C@H](CCCCN)NC(=O)[C@H](Cc1ccc(O)cc1)NC(=O)[C@H](CC(N)=O)NC(=O)[C@H](CC(C)C)NC(=O)[C@H](CCC(N)=O)NC(=O)[C@H](CC(C)C)NC(=O)[C@@H](N)CCCNC(=N)N)C(=O)N[C@@H](Cc1c[nH]c2ccccc12)C(=O)N[C@@H](CS)C(=O)N1CCC[C@H]1C(=O)NCC(=O)N[C@@H](Cc1c[nH]c2ccccc12)C(=O)O [AD11] (H-RLQLNYKGKMWCPGW-OH) | 0.78

Note: attention shifts to another entry.
Quick one: MBC (µM) B. subtilis of CC(C)C[C@H](NC(=O)[C@H](CCCNC(=N)N)NC(=O)[C@H](Cc1c[nH]c2ccccc12)NC(=O)[C@H](CCCNC(=N)N)NC(=O)[C@H](CC(C)C)NC(=O)[C@@H](N)Cc1ccccc1)C(=O)N[C@@H](CCCCN)C(=O)N[C@@H](Cc1ccccc1)C(=O)N[C@@H](CCCCN)C(=O)N[C@@H](CO)C(=O)N[C@@H](CCCCN)C(=O)N[C@H](C(=O)N[C@@H](Cc1c[nH]c2ccccc12)C(=O)N[C@@H](CS)C(=O)N1CCC[C@H]1C(=O)O)C(C)C [AD7] (H-FLRWRLKFKSKVWCP-OH) ?
0.39
